TEST_SYSTEM: T1, Histidine-tagged human CD3e protein (human, UniProt P07766 23-126)
T1 construct: also called hCD3e-His; not shown: His tag
T1 sequence (P07766 23-126 limits assumed): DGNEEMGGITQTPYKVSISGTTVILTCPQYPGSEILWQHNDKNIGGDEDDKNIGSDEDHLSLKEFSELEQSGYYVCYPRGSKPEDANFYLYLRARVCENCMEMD
TEST_METHOD_NOTES: SPR (Biacore), human CD3e
Entries and their measured kon follow.
Express the result in M⁻¹ s⁻¹ but write the number alone.

[
  {
    "BINDER": "10A4-H3K2-IgG1-LALA (antibody, V domains shown, Humanized; human IgG1 with LALA mutations; also called H3K2 (humanized 10A4)) VH: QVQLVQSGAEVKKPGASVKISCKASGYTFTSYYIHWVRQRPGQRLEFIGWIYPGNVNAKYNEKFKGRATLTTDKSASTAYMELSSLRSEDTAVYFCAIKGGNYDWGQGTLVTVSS VL: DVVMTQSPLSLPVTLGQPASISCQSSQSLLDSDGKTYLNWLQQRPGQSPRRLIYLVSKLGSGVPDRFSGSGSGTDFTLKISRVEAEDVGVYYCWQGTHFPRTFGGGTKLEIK",
    "ENDPOINT_UNIT": "M⁻¹ s⁻¹",
    "RECORDED_MEASUREMENT": 62100
  }
]

Exercise: Item 10A4-H4K2-IgG1-LALA (antibody, V domains shown, Humanized; human IgG1 with LALA mutations; also called H4K2 (humanized 10A4)) VH: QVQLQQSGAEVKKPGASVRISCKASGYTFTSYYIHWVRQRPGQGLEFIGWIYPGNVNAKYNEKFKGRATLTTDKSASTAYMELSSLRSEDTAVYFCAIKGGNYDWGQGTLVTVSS VL: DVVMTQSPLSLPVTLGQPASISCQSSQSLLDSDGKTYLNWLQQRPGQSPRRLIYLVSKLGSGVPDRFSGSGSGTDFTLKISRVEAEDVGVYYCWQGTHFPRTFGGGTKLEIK has what recorded kon?
Key: 64100

Exercise: What value of measured kon is listed for 10A4-H3K1-IgG1-LALA (antibody, V domains shown, Humanized; human IgG1 with LALA mutations; also called H3K1 (humanized 10A4)) VH: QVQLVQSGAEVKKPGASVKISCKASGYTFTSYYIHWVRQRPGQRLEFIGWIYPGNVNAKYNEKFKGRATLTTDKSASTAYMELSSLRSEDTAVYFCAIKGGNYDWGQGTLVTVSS VL: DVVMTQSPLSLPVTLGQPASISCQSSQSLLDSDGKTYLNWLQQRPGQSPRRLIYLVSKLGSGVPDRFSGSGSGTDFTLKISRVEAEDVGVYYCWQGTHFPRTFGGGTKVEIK ?
Key: 65900
